# System: HEK293T cells
# PROCEDURE_SUMMARY: qHTS cell viability (CellTiter-Glo, 72 h; primary screen), control cell line
# Format: cell-based, human
# CONDITION: NPC library; qHTS dose-response AUC, HEK293T control
Structures can show the parent of a compound that is named as a salt.
VALUE_KIND: HEK293T_AUC

> print(dat)
                                   molecule  target.or.test.system   value.kind  experimental.result
1  CNS(=O)(=O)CCc1ccc2[nH]cc(C3CCN(C)CC3)c2c1 [Naratriptan hydrochloride]          HEK293T cells  HEK293T_AUC              455.258
2  O=C(CCCCCCCCC#CI)Oc1ccccc1 [Phenyl 11-iodo-10-undecynoate]          HEK293T cells  HEK293T_AUC              475.205
3               Oc1ccc(O)cc1 [Hydroquinone]          HEK293T cells  HEK293T_AUC              480.593

---

In this section, each of the molecules is paired with its reported Control-VP-MCC.
# System: VP-MCC cell lines (WAGA, MKL-1, MKL-2)
# PROCEDURE_SUMMARY: qHTS cell viability, VP-MCC cell lines as a group (mean AUC, VP.MCC.avg)
# Assay type: cell-based, human
# CONDITION: MIPE library, Control AUC minus VP-MCC AUC (therapeutic window), sheet S2E
VALUE_KIND: Control-VP-MCC

MOLECULE	TARGET_OR_TEST_SYSTEM	EXPERIMENTAL_RESULT
O=C(CCc1ccc(O)cc1)c1c(O)cc(O)cc1O	VP-MCC cell lines (WAGA, MKL-1, MKL-2)	54.4642
CC1=C(/C=C/C(C)=C/C=C/C(C)=C\C(=O)O)C(C)(C)CCC1	VP-MCC cell lines (WAGA, MKL-1, MKL-2)	50.6007
CN[C@@H]1[C@H](O)[C@H](NC)[C@H]2O[C@@]3(O)C(=O)C[C@@H](C)O[C@H]3O[C@@H]2[C@H]1O.Cl.Cl [Spectinomycin dihydrochloride]	VP-MCC cell lines (WAGA, MKL-1, MKL-2)	192.409
Cc1c(C)n(Cc2ccc(-c3ccccc3C(=O)O)cc2)c2ccc(C(=O)N[C@@H](C)c3ccc([N+](=O)[O-])cc3)cc12	VP-MCC cell lines (WAGA, MKL-1, MKL-2)	161.027
O=C(CCCCCCC(=O)Nc1ccccc1)NO [Suberoylanilide hydroxamic acid]	VP-MCC cell lines (WAGA, MKL-1, MKL-2)	69.1958
CC(=O)O[C@]1(C(C)=O)CC[C@H]2[C@@H]3C=C(C)C4=CC(=O)CC[C@]4(C)[C@H]3CC[C@@]21C [Megestrol acetate]	VP-MCC cell lines (WAGA, MKL-1, MKL-2)	88.658
CC1(C)CCC(c2ccc(Cl)cc2)=C(CN2CCN(c3ccc(C(=O)N[S+](=O)([O-])c4ccc(N[C@H](CCN5CCOCC5)CSc5ccccc5)c([S+](=O)([O-])C(F)(F)F)c4)cc3)CC2)C1	VP-MCC cell lines (WAGA, MKL-1, MKL-2)	189.019

---

Recorded MKL1_AUC for the following compounds
# Test system: MKL-1 cells (VP-MCC)
# PROCEDURE_SUMMARY: qHTS cell viability (CellTiter-Glo, 72 h; primary and follow-up small molecule screen)
# Type: cell-based, human
# CONDITION: NPC library, 8-point DRC, area under dose-response curve
Where a name gives a salt, the structure may show the parent alone.
VALUE_KIND: MKL1_AUC

> print(dat)
                                   compound  value.kind  experimental.result
1  Oc1ccc(C2CNCCc3c2cc(O)c(O)c3Cl)cc1 (stereo not drawn) [Fenoldopam]    MKL1_AUC              451.807
2  O=S1(=O)OC(c2ccc(O)cc2)(c2ccc(O)cc2)c2ccccc21 [Phenol red]    MKL1_AUC               429.88
3  CSc1ccc2c(c1)N(CCC1CCCCN1C)c1ccccc1S2 (stereo not drawn) [Thioridazine]    MKL1_AUC              412.834
4  O=C1CC2(CCCC2)CC(=O)N1CCCCN1CCN(c2ncccn2)CC1 [Buspirone]    MKL1_AUC              457.095
5  COc1ccc(CCN(C)CCCC(C#N)(c2cc(OC)c(OC)c(OC)c2)C(C)C)cc1OC (stereo not drawn) [Gallopamil hydrochloride]    MKL1_AUC              429.324
6  Nc1ccc(C(=O)NCC(=O)O)cc1 [Aminohippuric acid]    MKL1_AUC              395.372

---

Parameter Area under the dose-response curve (AUC) MCC26 Replicate 1: see the listing below.
# Tested on: MCC26 cells (VN-MCC)
# PROCEDURE_SUMMARY: qHTS cell viability (CellTiter-Glo, 72 h; primary and follow-up small molecule screen)
# Type: cell-based, human
Where a name gives a salt, the structure may show the parent alone.
VALUE_KIND: Area under the dose-response curve (AUC) MCC26 Replicate 1

COMPOUND	TARGET_OR_TEST_SYSTEM	EXPERIMENTAL_RESULT
COC[C@H]1OC(=O)c2coc3c2[C@@]1(C)C1=C(C3=O)[C@@H]2CC[C@H](O)[C@@]2(C)C[C@H]1OC(C)=O [17_-hydroxy Wortmannin]	MCC26 cells (VN-MCC)	392.5
COc1cc(O)c2c(c1)oc(=O)c1c3cc(O)c(O)cc3oc21	MCC26 cells (VN-MCC)	436.4
CCCC[C@@H](C)/C=C(C)/C=C(\C)C(=O)NC1=C[C@@](O)(/C=C/C=C/C=C/C(=O)NC2=C(O)CCC2=O)[C@@H]2O[C@@H]2C1=O	MCC26 cells (VN-MCC)	416.4
C[C@H]1O[C@@H](O[C@H]2[C@@H](O)C[C@H](O[C@H]3[C@@H](O)C[C@H](O[C@H]4CC[C@@]5(C)[C@H](CC[C@@H]6[C@@H]5CC[C@]5(C)[C@@H](C7=CC(=O)OC7)CC[C@]65O)C4)O[C@@H]3C)O[C@@H]2C)C[C@H](O)[C@@H]1O	MCC26 cells (VN-MCC)	279.4
CC(/C=C/C(=O)NO)=C\[C@@H](C)C(=O)c1ccc(N(C)C)cc1	MCC26 cells (VN-MCC)	375.6
CO[C@@H]1C[C@@H](C[C@H]2CC[C@H](C)[C@H]([C@@H](C)C(=O)[O-])O2)O[C@]2(O[C@](C)([C@H]3CC[C@@](C)([C@@H]4O[C@@H]([C@H]5O[C@@](O)(CO)[C@H](C)C[C@@H]5C)C[C@@H]4C)O3)C[C@H]2C)[C@@H]1C.[Na+] [Nigericin sodium salt]	MCC26 cells (VN-MCC)	423.1
O=C1c2c(O)ccc(O)c2C(=O)c2c(NCCNCCO)ccc(NCCNCCO)c21 [Mitoxantrone dihydrochloride]	MCC26 cells (VN-MCC)	322.6
CS[C@H]1SC[C@H]2C(=O)N(C)[C@@H](C(C)C)C(=O)OC[C@@H](NC(=O)c3cnc4ccccc4n3)C(=O)N[C@@H](C)C(=O)N(C)[C@@H]1C(=O)N(C)[C@@H](C(C)C)C(=O)OC[C@@H](NC(=O)c1cnc3ccccc3n1)C(=O)N[C@@H](C)C(=O)N2C	MCC26 cells (VN-MCC)	267.2
O=c1cccc2n1C[C@@H]1CNC[C@H]2C1	MCC26 cells (VN-MCC)	425.8
CCC(=O)CCCCC[C@@H]1NC(=O)[C@H]2CCCCN2C(=O)[C@H]([C@@H](C)CC)NC(=O)[C@H](Cc2cn(OC)c3ccccc23)NC1=O	MCC26 cells (VN-MCC)	312.3
CC[n+]1c(-c2ccccc2)c2cc(N)ccc2c2ccc(N)cc21 [Ethidium bromide]	MCC26 cells (VN-MCC)	428.7
O[C@H]1[C@H]2[C@H](O)CCCN2C[C@H]1O	MCC26 cells (VN-MCC)	425.6
CC[C@@]1(O)C(=O)OCc2c1cc1n(c2=O)Cc2cc3cc(O)ccc3nc2-1 [10-hydroxycamptothecin]	MCC26 cells (VN-MCC)	260.5
CN(C)C(=O)Nc1ccc(Cl)c(Cl)c1	MCC26 cells (VN-MCC)	419.4

---

// Area under the dose-response curve (AUC) UISO Replicate 1 lookup, one value per entry
# Test system: UISO cells (VN-MCC)
# PROCEDURE_SUMMARY: qHTS cell viability (CellTiter-Glo, 72 h; primary and follow-up small molecule screen)
# Assay type: cell-based, human
# CONDITION: follow-up screen; UISO; replicate 1
Structures can show the parent of a compound that is named as a salt.
VALUE_KIND: Area under the dose-response curve (AUC) UISO Replicate 1

COMPOUND	EXPERIMENTAL_RESULT
CN(C)C(=S)SSC(=S)N(C)C	236.0
CC(=O)[C@]1(O)Cc2c(O)c3c(c(O)c2[C@@H](O[C@H]2C[C@H](N)[C@H](O)[C@H](C)O2)C1)C(=O)c1ccccc1C3=O [Idarubicin hydrochloride]	184.7
CN(C(Cc1ccc(O[S+](=O)([O-])c2cccc3cnccc23)cc1)C(=O)N1CCN(c2ccccc2)CC1)[S+](=O)([O-])c1cccc2cnccc12 (stereo not shown)	473.7
CO[C@H]1/C=C/O[C@@]2(C)Oc3c(C)c(O)c4c(O)c(c(/C=N/N5CCN(C6CCCC6)CC5)c(O)c4c3C2=O)NC(=O)/C(C)=C\C=C\[C@H](C)[C@H](O)[C@@H](C)[C@@H](O)[C@@H](C)[C@H](OC(C)=O)[C@@H]1C	475.3
CC[C@@]1(O)C(=O)OCc2c1cc1n(c2=O)Cc2cc3ccccc3nc2-1	151.6
CCCCCCCCCCCCCCCC[N+](C)(C)CC [Ethylhexadecyldimethylammonium bromide]	324.1
[O-][n+]1ccccc1SSc1cccc[n+]1[O-]	241.8

Data provenance: paper PMC11822212
